Data provenance: ChEMBL document CHEMBL4342442

- Test system: Bacillus subtilis
- Test Description: Antibacterial activity against Bacillus subtilis MTCC 441 assessed as diameter of zone of inhibition at 200 ug/ml after 24 hrs by agar well diffusion method
- Assay type: functional
- Assay Context: MTCC 441, 24 h, read-out: DIZ
Attribute Measured: zone of inhibition at 200 µg/mL (mm)
Output spec: scalar in mm, unitless text.

q: Which zone of inhibition at 200 µg/mL is listed for CC(=O)c1c(O)c(C)c(O)c2c1OC1=CC(=O)/C(=C(/C)NCc3cn(CC(=O)c4cccc(C(F)(F)F)c4)nn3)C(=O)C12C (centres undefined) ?
a: 15

q: State the recorded zone of inhibition at 200 µg/mL for this entry: CN[C@@H]1[C@H](O[C@H]2[C@H](O[C@H]3[C@H](O)[C@@H](O)[C@H](N=C(N)N)[C@@H](O)[C@@H]3N=C(N)N)O[C@@H](C)[C@]2(O)C=O)O[C@@H](CO)[C@H](O)[C@H]1O [STREPTOMYCIN]
a: 24

q: May I ask what zone of inhibition at 200 µg/mL has been recorded for CC1(C)S[C@@H]2[C@H](NC(=O)Cc3ccccc3)C(=O)N2[C@H]1C(=O)O [PENICILLIN G] ?
a: 28

q: Return reported zone of inhibition at 200 µg/mL; argument: CC(=O)c1c(O)c(C)c(O)c2c1OC1=CC(=O)/C(=C(/C)NCc3cn(CC(=O)c4ccc(F)c(F)c4)nn3)C(=O)C12C (centres undefined)
a: 12
